ASSAY PROTOCOL: Inhibition of recombinant perforin mediated lysis of human Jurkat cells pre-incubated for 30 mins with perforin followed by incubation with Jurkat cells at 37 degC for 4 hrs in presence of 0.1% BSA by [51Cr] release assay
# reported IC50; entries follow
QUANTITY NAME: IC50 (µM)

Cc1cc2nc(C(C#N)=Cc3ccc(OCC(N)=O)cc3)[nH]c2cc1C
5.14
CCNC(=O)COc1ccc(-c2c(C#N)c(N)n3c(nc4ccccc43)c2C#N)cc1
7.44
N#Cc1c(-c2ccc(C(=O)NCCCO)cc2)c(C#N)c2nc3ccccc3n2c1N
4.18
Cc1cc2nc3c(C#N)c(-c4ccc(OCC(N)=O)cc4)c(C#N)c(N)n3c2cc1C
3.53
N#Cc1c(-c2ccc(C(=O)NCCN3CCOCC3)cc2)c(C#N)c2nc3ccccc3n2c1N
10
CCCNC(=O)COc1ccc(-c2c(C#N)c(N)n3c(nc4ccccc43)c2C#N)cc1
13.9
CN(C)C(=O)COc1ccc(-c2c(C#N)c(N)n3c(nc4ccccc43)c2C#N)cc1
6.89
CCNC(=O)c1ccc(-c2c(C#N)c(N)n3c(nc4ccccc43)c2C#N)cc1
3.16
